Entry source: patent US20250011316A1

- Test system: human SK—OV-3 ovarian cancer cells
- measurement-notes: Cellular Activity Assay (cytotoxicity, crystal violet)
- Type: cell-based
- recorded-conditions: Homo sapiens; SK—OV-3 cells, treated for 48 hr, 0.1-100 μM, crystal violet absorbance at 540 nm
pEC50: −log10 of the molar value.
assay-metric: pEC50

Worked examples follow.
- chemical-string: "C=C(NC(=O)c1csc(-c2ccc(CNC(=O)CCNC(=O)OC(C)(C)C)cc2)n1)C(=O)NC(=C)C(=O)OC"
  assay-metric: "pEC50"
  result: "5.00 to 6.00"
- chemical-string: "C=C(NC(=O)c1csc(N2CCC(NC(=O)OCCOC)CC2)n1)C(=O)NC(=C)C(=O)OC"
  assay-metric: "pEC50"
  result: "4.00 to 4.60"
- chemical-string: "C=C(NC(=O)c1csc(N2CCN(C(=O)OC(C)(C)C)[C@@H](C)C2)n1)C(=O)NC(=C)C(=O)OC"
  assay-metric: "pEC50"
  result: "5.00 to 6.00"

The reported pEC50 of the compound C=C(NC(=O)c1csc(-c2ccc(COC(=O)NCc3ccccc3)cc2)n1)C(=O)NC(=C)C(=O)OC was 4.00 to 4.60

pEC50 for C=C(NC(=O)c1csc(N2CCC(N(C)C(=O)OCC)CC2)n1)C(=O)NC(=C)C(=O)OC is 5.00 to 6.00

pEC50 measured on C=C(NC(=O)c1csc(-c2ccc(NC(=O)CCCCCN=[N+]=[N-])cc2)n1)C(=O)NC(=C)C(=O)OC = 4.60 to 5.00
